Reference source: patent EP4659811A1

study_system: T1, VP1 pentamer of BKV genotype IV (recombinant) (BK virus genotype IV, UniProt P14996 30-300)
T1 construct: also called GIV; VP1 BKV subtype IV; not shown: N-terminal His-tag of pESPRIT002; C-terminal biotin acceptor peptide (BAP) of pESPRIT002
protocol_text: ELISA, coated VP1 pentamer
For each record, write down the corresponding EC50.
Reply numerically in µg/mL, unit not repeated.

Look up EC50: antibody C11P7 (antibody, V domains shown) VH: EVQLVESGGGLVQPGGSLKLSCAASGFSLSNSEVHWVRQASGKGLEWIGRVRSRANRHATGYTESVNGRFTVSRDDSKNTASLQLESLKIEDTAVYYCTGVRGVISRYFAMDVWGQGTTVTVSS VL: QSALTQPASVSGSPGQSITISCTGTSSDVGAYNYVSWYRLRPGKDPHLIIYDVSHRPAGVSNRFSGSKSGNTASLTISGLQAEDEDEYYCCSYAHRGTPLFGGGTKLTVL
4

Further, for antibody E4P2 (antibody, V domains shown) VH: QVQLQESGPGLVKPSQTLSLTCTVSGGSISSGGYYWSWIRQHPGKGLEWIGYMYYSGSTNYNPSLKSRVTISVDTSKNQFSLKLTSVTAADTAVYYCARDRRDYGDYYYFGMDVWGQGTTVTVSS VL: QSVLTQPPSVSGAPGQRVTISCTGSSSNIGAGYDVHWYQQLPGTAPKLLIYANSNRPSGVPDRFSGSKSGTSASLAITGLQAEDEANYYCQSYDSSLSVYVVFGGGTKLTVL ?
0.18
